# measured_on: Muscarinic acetylcholine receptor M1 (Homo sapiens) (UniProt P11229)
# Sequence (P11229 whole entry, looked up): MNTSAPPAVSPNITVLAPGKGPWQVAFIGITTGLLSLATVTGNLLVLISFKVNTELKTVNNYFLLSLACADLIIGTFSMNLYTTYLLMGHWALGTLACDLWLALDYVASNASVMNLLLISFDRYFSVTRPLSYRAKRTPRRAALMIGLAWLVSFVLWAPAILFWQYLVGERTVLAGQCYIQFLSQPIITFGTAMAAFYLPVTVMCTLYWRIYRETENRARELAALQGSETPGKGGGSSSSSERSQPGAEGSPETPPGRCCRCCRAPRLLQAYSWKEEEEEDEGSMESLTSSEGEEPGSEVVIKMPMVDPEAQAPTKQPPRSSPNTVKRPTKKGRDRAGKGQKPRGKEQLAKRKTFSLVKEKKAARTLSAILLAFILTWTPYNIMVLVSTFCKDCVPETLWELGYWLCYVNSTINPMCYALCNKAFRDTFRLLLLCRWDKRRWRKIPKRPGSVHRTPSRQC
# method: CHRM1 blockers of acetylcholine calcium response – CHO-K1 cells, Fluo-8 calcium fluorescence, 1536-well, primary screen (AID 588852);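 also: peak over basal fluorescence ratio during 140 s after agonist addition; 0% = ACh EC80 plus DMSO and 100% = DMSO alone without agonist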
# cond: CHO-K1 hM1, Fluo-8 calcium fluorescence, ACh EC80 antagonist; at 3 µM; hits give high values
Hit rate of the full screen: of about 360,000 compounds, about 4,600 (1.3%) were called active. The sample as a whole holds a higher share of actives than the screen did.
Could you please report measured inhibition for the items listed next?
Numbers only, in %.

Previously resolved entries follow.
molecule	inhibition (%)
COc1ccccc1OCC(=O)Nc1c2c(nn1-c1ccc(F)cc1)CS(=O)(=O)C2	-12.4
COc1ccc(S(=O)(=O)Nc2cccnc2)c(Cl)c1Cl	9.26
O=C(/C=C(O)/C=C/c1ccc(O)cc1)/C=C/c1ccc(O)cc1	33.7

Answer for every listed entry: what is its inhibition? The entries follow.
1. CC1(Cc2cccc(C#N)c2)C(=O)Nc2ccc(-c3cccc(C(F)(F)F)c3)cc21 (stereo unspecified)
2. O=C(NCc1ccco1)/C(=C\c1cccc([N+](=O)[O-])c1)NC(=O)c1ccco1
3. c1ccc(CNCc2ccc(CNCc3ccccc3)cc2)cc1
4. COc1cccc(C=CC(=O)C=CC=Cc2ccccc2)c1
5. O=Cc1cn(CCOc2ccc(F)cc2)c2ccccc12
6. Cn1nccc1C(=O)NC1CCCc2c1cnn2-c1ccc(F)cc1F (stereo unspecified)

1. -21.5
2. -2.79
3. 2.12
4. -3.17
5. 7.49
6. 31.6

###

Exercise: for every item that follows, state its recorded inhibition.
# measured_on: Muscarinic acetylcholine receptor M1 (Homo sapiens) (UniProt P11229)
# method: CHRM1 blockers of acetylcholine calcium response – CHO-K1 cells, Fluo-8 calcium fluorescence, 1536-well, primary screen (AID 588852);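 also: peak over basal fluorescence ratio during 140 s after agonist addition; 0% = ACh EC80 plus DMSO and 100% = DMSO alone without agonist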
# cond: CHO-K1 hM1, Fluo-8 calcium fluorescence, ACh EC80 antagonist; at 3 µM; hits give high values
About 4,600 (1.3%) of roughly 360,000 compounds were called active. Many of the other results were omitted from the sample, so actives are more common in it than they were.
One number for each entry, in %.

Fc1ccc(-n2c(Cc3ccccc3)nnc2SCc2nc(-c3ccc(Cl)cc3)no2)cc1 -1.38
COc1ccc(-c2nc3ccc(Br)cn3c2Cc2ccc(C)cc2)cc1OC -18.2
C=CCn1c2c(c3ccccc31)CCC2 3.67
COc1ccccc1CNC(=O)Cn1c(=O)oc2cc(Cl)ccc21 -12.3
O=C(Nc1cccc2ccccc12)c1[nH]c(-c2ccccc2)c2c1C(=O)N(C1CC1)C2=O -24.4

Could you now look at the following compound, please?
compound `COc1cc(CN2CCN(Cc3ccc(C)cc3)CC2)c([N+](=O)[O-])cc1OC` , inhibition observed: -6.59

###

Exercise: state measured inhibition for each of the compounds provided.
# measured_on: Muscarinic acetylcholine receptor M1 (Homo sapiens) (UniProt P11229)
# method: CHRM1 blockers of acetylcholine calcium response – CHO-K1 cells, Fluo-8 calcium fluorescence, 1536-well, primary screen (AID 588852);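 also: peak over basal fluorescence ratio during 140 s after agonist addition; 0% = ACh EC80 plus DMSO and 100% = DMSO alone without agonist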
# cond: CHO-K1 hM1, Fluo-8 calcium fluorescence, ACh EC80 antagonist; at 3 µM; hits give high values
The whole screen tested about 360,000 compounds, of which about 4,600 (1.3%) were called active. The list comes from a sample in which actives are over-represented; it also holds close analogues and randomly drawn compounds.
Give bare numbers, in %.

Use these answered entries as a reference point.
compound	value_observed
COc1ccc(CN2CCCC(C(=O)c3ccc(Cl)cc3)C2)cc1Cn1cncn1 (stereo not drawn)	75.4
COc1ccc(CN2CCCC(C(=O)N3CCCCC3)C2)cc1 (stereo not drawn)	5.19
CCc1ccc2c(c1)NC(=O)C2(C)Cc1ccc(OC(F)(F)F)cc1 (stereo not drawn)	-13.1
CCOc1ccccc1CN1CCN(C2CCC2)CC1CCO (stereo not drawn)	-17.7
COc1cc(C2OC(c3cc(OC)c(OC)c(OC)c3)C(C)C2C)cc(OC)c1OC (stereo not drawn)	0.63

Please state inhibition for every compound in the list that follows.
1. CC1CCCC(C)N1C(=O)COC(=O)COc1ccccc1C#N (stereo not drawn)
2. COc1cc(C=C(OC(C)=O)c2ccc3c(c2)OCO3)cc(OC)c1OC
3. CCCCc1nc2ccc(F)cc2cc1C
4. COc1cc(CN2CCCC(C(=O)c3ccc(SC)cc3)C2)cc(Cl)c1O (stereo not drawn)
5. COc1ccccc1CNc1nc(Nc2ccccc2Cl)c2sccc2n1

-15.1
17.2
-6.44
-1.81
30.1

Go through the items and report each one's inhibition.
1. CC1=C2C(=O)OC(c3ccoc3)C2(C)CCC1 (stereo not drawn)
2. Clc1ccccc1Nc1nc(NCc2cccs2)nc2ccsc12
3. CC1=C(C(=O)N2CCOCC2)CC(CC(=O)NCc2cccs2)C(=O)N1CCCN1CCCC1=O (stereo not drawn)
4. Cc1cc(Br)cn2c(Cc3cccc(F)c3)c(-c3cccc(Br)c3)nc12
5. O=C(COc1cccnc1[N+](=O)[O-])Nc1ccc(Cl)cc1F
6. Cc1ccccc1C(OCC(O)CN1CCCCC1CCO)c1ccccc1 (stereo not drawn)

-3.46
7.85
4.82
-3.87
3.68
28.9

# map each compound to its inhibition
1. COc1ccc(C2c3c(C)nn(-c4ccccc4)c3NC(=O)N2c2ccccc2)cc1 (stereo not drawn)
2. O=C(/C=C/[C@H]1O[C@@H](n2cnc3c(NC(=O)c4ccccc4)ncnc32)[C@H](O)[C@@H]1O)NCc1ccccc1

1: -12.4; 2: -2.88

// input: 5 compounds below; output: inhibition for each
1. COc1cccc(NC(=O)COc2cccnc2[N+](=O)[O-])c1
2. CN(C)/C=C(\C#N)C(=O)c1cccnc1Oc1ccc(F)cc1F
3. Cc1ccccc1C(OCCN(C)C)C1CCCCC1 (stereo not drawn)
4. Nc1ncnc2c1ncn2[C@@H]1O[C@H](C(=O)N2CCSC2)[C@@H](O)[C@H]1O
5. CNC[C@H]1OCc2cnnn2CCCC(=O)N([C@H](C)CO)C[C@@H]1C

1: -7.66; 2: -0.88; 3: 99.8; 4: -21.6; 5: -31.6

###

# measured_on: Muscarinic acetylcholine receptor M1 (Homo sapiens)
# method: CHRM1 blockers of acetylcholine calcium response – CHO-K1 cells, Fluo-8 calcium fluorescence, 1536-well, primary screen (AID 588852);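 also: peak over basal fluorescence ratio during 140 s after agonist addition; 0% = ACh EC80 plus DMSO and 100% = DMSO alone without agonist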
# cond: CHO-K1 hM1, Fluo-8 calcium fluorescence, ACh EC80 antagonist; at 3 µM; hits give high values
Hit rate of the full screen: of about 360,000 compounds, about 4,600 (1.3%) were called active. For the sample, actives were picked, then their nearest neighbours and some compounds at random.
Consider the following molecules; for each one, report its inhibition.

Previously resolved entries follow.
molecule	inhibition
CC(=O)c1c(O)cc2n(c1=O)-c1ccc(Cl)cc1C2(C)C	-13.4% (inactive)
c1ccc2c(c1)CSc1sccc1C2=C1CCNCC1	99.6% (active)
COc1ccc(-c2cc(C(=O)N(C)Cc3ccc(OC)c(OC)c3OC)c3ccccc3n2)cc1OC	41.5% (active)
CC(=O)N1CCOc2ccc(S(=O)(=O)N3CCC(C(=O)Nc4ccccc4F)CC3)cc21	-13.2% (inactive)
Oc1cccc2cc(-c3ccncc3)cnc12	-21.3% (inactive)

Please look at the items below and tell me inhibition for each one, in order.
1. COc1ccc([N+](=O)[O-])cc1C1NN=C(c2cccc3ccccc23)S1 (centres undefined)
2. CCCC[C@@H]1CN=C(N)N1CCc1cccc(F)c1

1: -11% (inactive); 2: 18.6% (inactive)

Parameters: items (list). Returns: inhibition for each item.
1. CC1=C(C(=O)N(C(C)C)C(C)C)CC(CC(=O)NCC2CCCCC2)C(=O)N1Cc1ccccc1 (centres undefined)
2. Cc1ccc(CN2C(=O)N/C(=C/c3cc(C)n(-c4ccccn4)c3C)C2=O)cc1
3. COc1ccc(S(=O)(=O)N2CCCCCC2)cc1C(=O)N(C)Cc1cccc(OC)c1OC
4. FC(F)(F)c1ccccc1Cc1c(-c2ccccc2)nc2c3ccccc3ccn12
5. Cc1cc(C)cc(C(=O)NCCN2CCOCC2)c1
6. CCN(CC(=O)Nc1c(F)cccc1F)C(=O)Cc1cccs1
7. CC(C)C(=O)Nc1nnc(Sc2ccc(N(C)C)cc2)s1
8. COc1ccc(-c2cc(C(=O)n3cnc4ccccc43)c3ccccc3n2)cc1

["-28.2% (inactive)", "-1.22% (inactive)", "-2.19% (inactive)", "-26% (inactive)", "-11.1% (inactive)", "-16.3% (inactive)", "-14.1% (inactive)", "-11.1% (inactive)"]

Dear colleague, could you send me inhibition for each of the items below? Thanks.
1. Cc1cn([C@H]2C[C@H](O)[C@@H](/C=C/C(=O)NCCCc3ccccc3)O2)c(=O)[nH]c1=O
2. COc1ccc(-c2cc(C(=O)NCCCN3CCCC3=O)c3ccccc3n2)cc1OC
3. CCN1CCN(CCCCOc2ccccc2F)CC1
4. COc1ccc(Cl)cc1NC(=O)CN(C)C(=O)c1cc2ccccc2cc1OC

1: -25.2% (inactive); 2: 19.9% (inactive); 3: -2.84% (inactive); 4: -2.48% (inactive)
